target: CD28 (human) (UniProt P10747); assay: flow cytometry, transfected cells
The entries below are paired with their reported MFI ratio to WT (ΔWT).
Report only the number, with the unit fold understood.

ICOSL-Fc N52V/N57T/Q100L (Fc fusion) DTQEKEVRAMVGSDVELSCACPEGSRFDLNDVYVYWQTSESKTVVTYHIPQVSSLETVDSRYRNRALMSPAGMLRGDFSLRLFNVTPQDEQKFHCLVLSLSLGFQEVLSVEVTLHVAANFSVPVVSAPHSPSQDELTFTCTSINGYPRPNVYWINKTDNSLLDQALQNDTVFLNMRGLYDVVSVLRIARTPSVNIGCCIENVLLQQNLTVGSQTGNDIGERDKITENPVSTGEKNAAT ... 0.3
ICOSL-Fc N52M/N57H/Q100S (Fc fusion) DTQEKEVRAMVGSDVELSCACPEGSRFDLNDVYVYWQTSESKTVVTYHIPQMSSLEHVDSRYRNRALMSPAGMLRGDFSLRLFNVTPQDEQKFHCLVLSSSLGFQEVLSVEVTLHVAANFSVPVVSAPHSPSQDELTFTCTSINGYPRPNVYWINKTDNSLLDQALQNDTVFLNMRGLYDVVSVLRIARTPSVNIGCCIENVLLQQNLTVGSQTGNDIGERDKITENPVSTGEKNAAT ... 5.1

Let us examine a further case.
The binder ICOSL-Fc N52S/N57Y/Q100V (Fc fusion) DTQEKEVRAMVGSDVELSCACPEGSRFDLNDVYVYWQTSESKTVVTYHIPQSSSLEYVDSRYRNRALMSPAGMLRGDFSLRLFNVTPQDEQKFHCLVLSVSLGFQEVLSVEVTLHVAANFSVPVVSAPHSPSQDELTFTCTSINGYPRPNVYWINKTDNSLLDQALQNDTVFLNMRGLYDVVSVLRIARTPSVNIGCCIENVLLQQNLTVGSQTGNDIGERDKITENPVSTGEKNAAT showed MFI ratio to WT (ΔWT) equal to 5.7
